- TARGET_OF_ASSAY: human TRPV1 (Homo sapiens (Human), UniProt Q8NER1)
- Sequence (Q8NER1 whole entry): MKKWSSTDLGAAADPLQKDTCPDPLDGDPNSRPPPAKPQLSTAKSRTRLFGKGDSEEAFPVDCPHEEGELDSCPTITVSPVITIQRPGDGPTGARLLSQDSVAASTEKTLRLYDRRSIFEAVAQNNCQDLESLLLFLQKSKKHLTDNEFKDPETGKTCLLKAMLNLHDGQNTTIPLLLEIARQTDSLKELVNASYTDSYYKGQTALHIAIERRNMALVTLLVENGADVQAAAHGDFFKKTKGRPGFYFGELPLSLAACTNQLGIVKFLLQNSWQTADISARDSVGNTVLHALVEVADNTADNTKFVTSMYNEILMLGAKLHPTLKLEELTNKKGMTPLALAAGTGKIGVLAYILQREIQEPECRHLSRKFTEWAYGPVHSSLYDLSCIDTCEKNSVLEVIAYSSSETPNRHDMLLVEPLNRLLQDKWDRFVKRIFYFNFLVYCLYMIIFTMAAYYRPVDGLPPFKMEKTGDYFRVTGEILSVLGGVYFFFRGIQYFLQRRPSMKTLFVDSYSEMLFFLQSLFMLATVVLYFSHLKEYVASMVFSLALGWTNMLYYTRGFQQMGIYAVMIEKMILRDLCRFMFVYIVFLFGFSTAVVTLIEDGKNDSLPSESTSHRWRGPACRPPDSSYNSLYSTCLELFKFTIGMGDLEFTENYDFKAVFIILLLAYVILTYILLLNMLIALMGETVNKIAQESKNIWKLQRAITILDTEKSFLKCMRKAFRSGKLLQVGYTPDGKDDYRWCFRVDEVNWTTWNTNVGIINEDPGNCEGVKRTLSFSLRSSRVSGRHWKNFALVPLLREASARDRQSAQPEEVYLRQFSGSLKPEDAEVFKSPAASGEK
- PROTOCOL_DESCRIPTION: Acid Activation Assay (pH 5.0, intracellular Ca2+, FLIPR)
- Format: cell-based
- CONDITION_NOTES: percentage of the maximal pH 5.0-induced response remaining; recombinant HEK293 hTRPV1 cells; maximum concentration tested 37.5 μM
human TRPV1 H^+ (max % remain) for assorted compounds
PROPERTY: human TRPV1 H^+ (max % remain) (%)

• CCC1(CC)C[C@@H](NC(=O)Nc2cccc3c2ccc(=O)n3C)c2cc(F)ccc2O1 = 28
• CN1C(=O)CCc2ccc(NC(=O)N[C@@H]3CC4(CCCC4)Oc4ccccc43)cc21 = 75
• CN1C(=O)CCc2ccc(NC(=O)N[C@@H]3CCOc4cc(C(F)(F)F)ccc43)cc21 = 60
• C[C@]1(CF)C[C@@H](NC(=O)Nc2ccc3c(c2)NC(=O)CO3)c2ccc(C(F)(F)F)cc2O1 = 99

---

pIC50 for assorted molecules
- TARGET_OF_ASSAY: human TRPV1 (Homo sapiens (Human))
- PROTOCOL_DESCRIPTION: Capsaicin Activation Assay (intracellular Ca2+, FLIPR)
- CONDITION_NOTES: recombinant HEK293 cells expressing hTRPV1, 50 nM capsaicin
pIC50: −log10 of the molar value.
PROPERTY: pIC50

* CC1(C)C[C@@H](NC(=O)Nc2ccc3c(c2)NC(=O)N(CCO)C3)c2ccc(C(F)(F)F)cc2O1 | 7.68
* CN1C(=O)NCc2c(NC(=O)N[C@@H]3C[C@@](C)(CF)Oc4ccccc43)cccc21 | 6.92
* Cn1c(=O)ccc2c(NC(=O)N[C@H]3CC(C)(C)Oc4ccc(F)cc43)cccc21 | 5.43
* Cn1c(=O)ccc2c(NC(=O)N[C@@H]3CC(C)(C)Oc4ccccc43)cccc21 | 7.39
* CCC1(CC)C[C@@H](NC(=O)Nc2ccc3c(c2)NC(=O)CC3)c2ccc(Cl)cc2O1 | 6.89
* C[C@]1(C(F)F)C[C@@H](NC(=O)Nc2ccc3c(c2)NC(=O)CO3)c2ccccc2O1 | 6.44
* Cn1c(=O)ccc2c(NC(=O)N[C@H]3CCOc4cc(OC(F)(F)F)ccc43)cccc21 | 7.04
* CCC1(CC)C[C@@H](NC(=O)Nc2cccc3c2ccc(=O)n3C)c2cc(F)ccc2O1 | 7.72

---

inhibition in vivo at 10 mg/kg for assorted compounds
- Tested on: rats
- PROTOCOL_DESCRIPTION: Sodium iodoacetate-induced knee joint osteoarthritic pain model (hind limb grip force)
- Assay type: in vivo
- CONDITION_NOTES: rat; 10 mg/kg, po; single acute dose; 1 hour after administration; 20 days after sodium iodoacetate; read-out: % effect (% return to normalcy of hind limb grip force)
- Procedure: Unilateral knee joint osteoarthritis was induced in the rats by a single intra-articular (i.a.) injection of sodium iodoacetate (3 mg in 0.05 mL sterile isotonic saline) into the right knee joint cavity under light isoflurane anesthesia using a 26 G needle. […] The analgesic effects of test compounds were determined 20 days following the i.a. injection of sodium iodoacetate. […] The % effect for each dose group was then expressed as % return to normalcy compared to the naïve group. […]
PROPERTY: inhibition in vivo at 10 mg/kg (%)

* O=C1CCc2ccc(NC(=O)N[C@@H]3CCc4cc(C(F)(F)F)ccc43)cc2N1 | 42
* CC1(C)C[C@@H](NC(=O)Nc2ccc3c(c2)NC(=O)CC3)c2ccc(Cl)c(F)c2O1 | 50
* CC1(C)C[C@@H](NC(=O)Nc2ccc3c(c2)NC(=O)CC3)c2ccc(F)c(F)c2O1 | 37
* O=C1CCc2ccc(NC(=O)N[C@@H]3CC(CF)(CF)Oc4cc(Cl)ccc43)cc2N1 | 24
* C[C@]1(C(F)(F)F)C[C@@H](NC(=O)Nc2ccc3c(c2)NC(=O)CC3)c2ccccc2O1 | 46
* CC1(C)C[C@@H](NC(=O)Nc2ccc3c(c2)NC(=O)CO3)c2ccc(F)cc2O1 | 63
* O=C1CCc2ccc(NC(=O)N[C@@H]3CCc4cc(Cl)ccc43)cc2N1 | 38
* CC1(C)C[C@@H](NC(=O)Nc2ccc3c(c2)NC(=O)CC3)c2ccc(C(F)(F)F)cc2O1 | 22

Data origin: patent US8969325B2
